The reported measurements were obtained from ChEMBL document CHEMBL3351317.

# MEASUREMENT PROTOCOL: Volume of distribution at steady state in beagle dog at 2 mg/kg, iv or 3.4 mg/kg, po
# Assay type: ADME, organism-based, Canis lupus familiaris
# TEST SETTINGS: in vivo, read-out: Vdss
ASSAY ENDPOINT: Vd (L/kg)
State just the number; it will be interpreted in L/kg.

Incoming: Value lookup for Vd; key = C[C@@H]1CN(c2nc(C(F)(F)F)no2)CCN1c1ncc(OCc2ccc(CS(C)(=O)=O)cc2F)cn1
Outgoing: 3.3

----------
# MEASUREMENT PROTOCOL: Half life in Han Wistar rat at 2 mg/kg, iv
# Format: ADME, organism-based
# Design: dose 2 mg/kg, route intravenous
# TEST SETTINGS: in vivo
ASSAY ENDPOINT: half-life (h)
Answer with a number only, understood to be in h.

Incoming: Find the recorded half-life belonging to C[C@@H]1CN(c2nc(C(F)(F)F)no2)CCN1c1ncc(OCc2ccc(CS(C)(=O)=O)cc2F)cn1 and report it.
Outgoing: 6.1
